Values compiled from PubChem BioAssay.

Listing of recorded nuclei count by entry.
Test description: reduction of polyQ htt aggregates in cells – imaging, exon1htt(103Q)mCFP cells, high-content imaging, primary screen (AID 483);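 further: compound exposure lasted 3 days before fixation; percent of the per-plate median nuclei count of sample wells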
Condition notes: exon1htt(103Q)mCFP cell line, aggregate imaging, at 2 µM; measured here: cell count, toxicity
Parameter measured: nuclei count (%)

{"Compound": "CC(C)COC(=O)C1C2C=CC3(CN(C(C)c4ccc(Br)cc4)C(=O)C13)O2 (stereo not drawn)", "Parameter measured": "nuclei count", "Experimental result": 78.4}
{"Compound": "Cc1ccccc1NC(=O)NCCCN1CCN(C2CCCCC2)CC1", "Parameter measured": "nuclei count", "Experimental result": 81.8}
{"Compound": "O=C(Nc1ccc(Cl)cc1C(=O)O)c1ccc2c(c1)C(=O)N(Cc1ccco1)C2=O", "Parameter measured": "nuclei count", "Experimental result": 105}
{"Compound": "COc1ccccc1CNC(=O)C1CCCN(S(=O)(=O)c2cnc[nH]2)C1 (stereo not drawn)", "Parameter measured": "nuclei count", "Experimental result": 87.1}
{"Compound": "Cc1c(C(=O)O)c(-c2ccccc2)nn1-c1ccccc1", "Parameter measured": "nuclei count", "Experimental result": 85.6}
{"Compound": "CCOc1ccccc1C(=O)Nc1nnc(CC)s1", "Parameter measured": "nuclei count", "Experimental result": 59.9}
{"Compound": "CCn1nc(C(=O)OCC(=O)N2CCc3ccccc32)c2ccccc2c1=O", "Parameter measured": "nuclei count", "Experimental result": 68.3}
{"Compound": "O=C(C1CCCN(S(=O)(=O)c2cccnc2)C1)N1CCn2c1nc1ccccc12 (stereo not drawn)", "Parameter measured": "nuclei count", "Experimental result": 112}
{"Compound": "CN(C)c1nc(N)nc(-c2nc3ccccc3s2)n1", "Parameter measured": "nuclei count", "Experimental result": 97.7}
{"Compound": "CCCC(=O)Nc1cc(C)c(NC(=O)c2ccccn2)cn1", "Parameter measured": "nuclei count", "Experimental result": 89.7}
{"Compound": "CCCc1nnc(SCC(=O)N2CCOCC2)n1Cc1ccco1", "Parameter measured": "nuclei count", "Experimental result": 96.5}
{"Compound": "O=C1CC(N2CCOCC2)C(=O)N1c1ccccc1Cl (stereo not drawn)", "Parameter measured": "nuclei count", "Experimental result": 96.9}
{"Compound": "Cc1ccc(C(=O)CSc2n[nH]c(-c3ccco3)n2)cc1C", "Parameter measured": "nuclei count", "Experimental result": 113}
{"Compound": "COc1ccccc1NC(=O)CSc1nnc(CC(=O)Nc2ccccc2)n1C", "Parameter measured": "nuclei count", "Experimental result": 89.5}
{"Compound": "COC(=O)c1ccccc1NC(=O)c1ccc(-c2ccccc2F)o1", "Parameter measured": "nuclei count", "Experimental result": 111}
{"Compound": "O=C(CC(SCCO)c1ccc2c(c1)OCO2)c1ccco1 (stereo not drawn)", "Parameter measured": "nuclei count", "Experimental result": 114}
{"Compound": "COc1ccc(NC(=O)CN(c2ccc(C(C)C)cc2)S(=O)(=O)c2c(C)noc2C)cc1OC", "Parameter measured": "nuclei count", "Experimental result": 123}
{"Compound": "Cc1cc(C)c2c(=O)n(CC(=O)NCCCN3CCOCC3)sc2n1", "Parameter measured": "nuclei count", "Experimental result": 118}
{"Compound": "CCCC(=O)OCCn1c(Br)nc2c1c(=O)[nH]c(=O)n2C", "Parameter measured": "nuclei count", "Experimental result": 127}
{"Compound": "Cc1c(C(=O)NCc2cccnc2)oc2ccc(S(=O)(=O)N3CCCCC3)cc12", "Parameter measured": "nuclei count", "Experimental result": 117}
{"Compound": "C=C(C)Cn1c(N2CCN(CC)CC2)nc2c1c(=O)[nH]c(=O)n2C", "Parameter measured": "nuclei count", "Experimental result": 81.9}
{"Compound": "COc1ccccc1NC1=NC(c2ccc(Cl)cc2)N=C(N)N1 (stereo not drawn)", "Parameter measured": "nuclei count", "Experimental result": 35.1}
{"Compound": "CCOC(=O)C1CCN(c2c(N3CCCC(C(=O)OCC)C3)c(=O)c2=O)CC1 (stereo not drawn)", "Parameter measured": "nuclei count", "Experimental result": 101}
